Molecular target: recombinant E2 protein (Hepatitis C virus genotype 1b)
Construct: encoding amino acids 384-656 of the Con1 envelope protein 2 ectodomain (eE2); made in house; host or cells: HEK293T cells (lentiviral, secreted)
Sequence (Q9WMX2 384-656): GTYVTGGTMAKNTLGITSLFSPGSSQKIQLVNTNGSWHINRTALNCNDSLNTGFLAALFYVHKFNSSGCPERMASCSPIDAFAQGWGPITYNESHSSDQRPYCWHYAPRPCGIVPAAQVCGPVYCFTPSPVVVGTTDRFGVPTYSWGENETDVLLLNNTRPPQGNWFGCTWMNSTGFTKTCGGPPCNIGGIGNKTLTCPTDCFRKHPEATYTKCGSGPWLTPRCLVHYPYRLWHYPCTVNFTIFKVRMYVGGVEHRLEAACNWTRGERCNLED
Test: Surface plasmon resonance (Biacore T100) binding to recombinant E2 immobilized on CM5 chip
Conditions: response remaining 10 sec after rinsing with buffer
QUANTITY NAME: Dissociation 1 (RU)
Please respond with the number in RU and leave the unit unwritten.

Known results for compounds:
{"COMPOUND": "C1C[C@H]2NCC[C@@H]3NCC[C@H](N1)N32", "U": "RU", "Dissociation 1 (RU)": 9.2}
{"COMPOUND": "O=C1CCCc2cc3c(cc21)CC1(C3)Cc2cc3c(cc2C1)C(=O)CCC3", "U": "RU", "Dissociation 1 (RU)": 4}
{"COMPOUND": "Cc1ccc([N+](=O)[O-])cc1NC(=O)Nc1onc(C)c1C", "U": "RU", "Dissociation 1 (RU)": 3.1}

Returns the measured Dissociation 1 (RU) for the input compound. Input: Cc1nc(/N=C(\N)N(C)C)[nH]c(=O)c1C 7

Returns the measured Dissociation 1 (RU) for the input compound. Input: CC[C@@]1(O)C(=O)OCc2c1cc1n(c2=O)Cc2cc3c(NC(=O)CN)cccc3nc2-1.Cl 2.3

Returns the measured Dissociation 1 (RU) for the input compound. Input: Cc1ccc([N+](=O)[O-])cc1NC(=O)Nc1ccc(S(N)(=O)=O)cc1 3.1

Returns the measured Dissociation 1 (RU) for the input compound. Input: CSc1ccc2c(c1)C(N1CCN(C)CC1)Cc1ccccc1S2 (centres unmarked) 3.7

Returns the measured Dissociation 1 (RU) for the input compound. Input: Cc1cc(-c2ccc(N3C(=O)CC4(CCCC4)C3=O)c(C)c2)ccc1N1C(=O)CC2(CCCC2)C1=O 7.1

Data provenance: patent US20160361311A1
